Reported disease control rating PIP by item:
Tested on: Phytophthora infestans
Assay type: in vivo
Conditions: tomato, direct protectant foliar spray

- molecule: "Cc1ccc(CNC2COC3(CCC(C(C)(C)C)CC3)C2)cc1 (stereo not shown)"
  disease control rating PIP: "0 (less than 50% disease control)"
- molecule: "CC(C)(C)C1CCC2(CC1)CC(NCc1cccnc1)CO2 (stereo not shown)"
  disease control rating PIP: "0 (less than 50% disease control)"
- molecule: "CCCCc1ccc(NC2COC3(CCC(C(C)(C)C)CC3)C2)cc1 (stereo not shown)"
  disease control rating PIP: "0 (less than 50% disease control)"
- molecule: "CC1CC(C)CN(C2COC3(CCC(c4ccccc4)CC3)C2)C1 (stereo not shown)"
  disease control rating PIP: "0 (less than 50% disease control)"
- molecule: "CC(C)(C)C1CCC2(CC1)CC(CN)CO2 (stereo not shown)"
  disease control rating PIP: "2 (greater than 80% disease control)"
- molecule: "CC(C)(C)C1CCC2(CC1)CC(NC1CCCCCC1)CO2 (stereo not shown)"
  disease control rating PIP: "2 (greater than 80% disease control)"
- molecule: "CCC(CC)N(C)C1COC2(CCC(C(C)(C)C)CC2)C1 (stereo not shown)"
  disease control rating PIP: "0 (less than 50% disease control)"
- molecule: "CC(C)CN(C)C1COC2(CCC(C(C)(C)C)CC2)C1 (stereo not shown)"
  disease control rating PIP: "0 (less than 50% disease control)"
- molecule: "C=CCN(C1CCCCC1)C1COC2(CCC(C(C)(C)C)CC2)C1 (stereo not shown)"
  disease control rating PIP: "2 (greater than 80% disease control)"
- molecule: "CCC(C)NC1COC2(CCC(C(C)(C)C)CC2)C1 (stereo not shown)"
  disease control rating PIP: "0 (less than 50% disease control)"

====

System: Cercospora beticola
Test: In vivo fungicidal activity, Sugar Beet Cercospora (SBC); further: ranges in brackets are in %
Settings: Table VIa; host plants sprayed; solution of 400 ppm and dilutions

- molecule: "CC(C)(C)C1CCC2(CC1)CC(CCNC1CCC3CCCCC3C1)CO2 (stereo not drawn)"
  disease control rating SBC: "8 (96-99)"
- molecule: "CCCCN(CCCC)CCC1COC2(CCC(C(C)(C)C)CC2)C1 (stereo not drawn)"
  disease control rating SBC: "8 (96-99)"
- molecule: "CCN(CCC1COC2(CCC(C(C)(C)C)CC2)C1)C1CCCCC1 (stereo not drawn)"
  disease control rating SBC: "8 (96-99)"
- molecule: "CC(C)(C)C1CCC2(CC1)CC(CCN1CCCCC1)CO2 (stereo not drawn)"
  disease control rating SBC: "8 (96-99)"
- molecule: "CCCCCC(C)N(CC)CCC1COC2(CCC(C(C)(C)C)CC2)C1 (stereo not drawn)"
  disease control rating SBC: "7 (90-95)"
- molecule: "CC(C)(C)C1CCC2(CC1)CC(CCNC1CCCCCC1)CO2 (stereo not drawn)"
  disease control rating SBC: "7 (90-95)"
- molecule: "CCCC(CCC)NCCC1COC2(CCC(C(C)(C)C)CC2)C1 (stereo not drawn)"
  disease control rating SBC: "6 (75-89)"
- molecule: "CN(CC1COC2(CCC(C(C)(C)C)CC2)C1)C1CCCCC1 (stereo not drawn)"
  disease control rating SBC: "5 (60-74)"
- molecule: "CCN(CC1COC2(CCC(C(C)(C)C)CC2)C1)C1CCCCC1 (stereo not drawn)"
  disease control rating SBC: "4 (45-59)"

Entry source: patent US5591741A
